Recorded values, source PubChem BioAssay (NCI).

tested on: SN12C renal; test: NCI tumour cell line growth inhibition, 48 h
Listed next: entries and their corresponding TGI.
quantityName: TGI

>>> df
                                    compound    result
 0            CCOC(=O)C(=Cc1cccnc1C)C(=O)OCC   16.2 µM
 1  O=C1CC(S(=O)(=O)O)C=C1Nc1cccc(Cl)c1 (stereo not drawn)  > 100 µM
 2    CCOC(=O)c1c(N2CCCC2)ncn(Cc2ccccc2)c1=S  > 100 µM
 3  CCOC(=O)NC(=O)c1cn(CCN2CCN(c3ncnc4nc[nH]c34)CC2)c(=O)[nH]c1=O  > 100 µM
 4  COc1ccc(OC)c(NC(=O)CCC/C(CC(=O)c2ccc(O)c(OC)c2)=N\Nc2ccc([N+](=O)[O-])cc2)c1  > 100 µM
 5  O=c1ccn(CC2(CO)CC(Cc3ccccc3)C2)c(=O)[nH]1 (stereo not drawn)  > 100 µM
 6  CC1CC/C(=C\c2ccc(Cl)cc2)C2OC(N)=C(C#N)C(c3ccc(Cl)cc3)=C12 (stereo not drawn)   26.5 µM
 7  CCCCN(CCCC)c1ccc(C(=N)c2ccc(N(CCCC)CCCC)cc2)cc1   1.44 µM
 8  [N-]=[N+]=NC(CI)c1cn([C@H]2C[C@H](O)[C@@H](CO)O2)c(=O)[nH]c1=O (stereo partly drawn)  > 100 µM
 9  COC(=O)C1=CC2C(=O)OC1CC2C#N (stereo not drawn)  > 100 µM
10  COc1ccc(C(C#N)Cc2cc(OC)c(OC)c(OC)c2)cc1 (stereo not drawn)  > 100 µM
11          CSc1n[nH]c(N)c1C(=O)Nc1ccc(C)cc1  > 100 µM
12  O=C1/C(=N\S(=O)(=O)c2ccccc2)C([n+]2ccc(Cc3ccccc3)cc2)=C([O-])c2ccccc21   3.12 µM
13  CC[C@H](CO)Nc1nc(NCc2ccccc2)n2ncc(C(C)C)c2n1   14.4 µM
14  OC(CCNCc1ccccc1)c1ccc2ccccc2c1 (stereo not drawn)   72.2 µM
15  C=C1C(=O)OC2C1C(OC(=O)/C(C)=C/C)CC(O)(CCl)C1C(O)C3OC3(C)C21O (stereo not drawn)   > 50 µM
16  C/C=C(\C)C(=O)O[C@H]1C=CC(=O)O[C@@H]1CC[C@H](O)[C@H](C)O  > 100 µM
17                          CN1CCN(CCCBr)CC1  > 100 µM
18  COC(=O)C(CSSC[C@H](N/C(C)=C/C(C)=O)C(=O)OC)N/C(C)=C/C(C)=O (stereo partly drawn)  > 100 µM
19  O=C(/C=C/c1ccc([N+](=O)[O-])cc1)c1ccc2c3c(cccc13)CC2  > 100 µM
20  N#CC(c1nc2ccccc2nc1Cl)S(=O)(=O)c1ccccc1 (stereo not drawn)  > 100 µM
21         COc1ccc(C)cc1Nc1nnc(-c2ccccc2N)s1  > 100 µM
22  CC1=NN(c2nc(N)nc(/C(C#N)=C/c3cccn3-c3cc(Cl)cc(Cl)c3)n2)C(C)(C)C1  > 100 µM
23  O=[N+]([O-])c1cccc([As]=[As]c2cccc([N+](=O)[O-])c2)c1 (stereo not drawn)  0.239 µM
24  CC1(C)CC(=O)c2c(nc3ccc4ccccc4c3c2-c2ccc(NC(=O)CCCCCCCCC(=O)Nc3ccc(-c4c5c(nc6ccc7ccccc7c46)CC(C)(C)CC5=O)cc3)cc2)C1  > 100 µM
25  Clc1nc(Cl)c2ncn(C/C=C/COc3cccc(OC/C=C/Cn4cnc5c(Cl)nc(Cl)nc54)c3)c2n1  > 100 µM
26                   O=CN/C=C/c1ccc(O)c(O)c1  > 100 µM
27  CCN(CC)c1ccc2cc(C(=O)Nc3cccc4ccccc34)c(=N)oc2c1  > 100 µM
28          CC1(c2ccc[n+](Cc3ccccc3)c2)OCCO1  > 100 µM
29  COc1ccc(NC(C)=O)cc1N1C(=O)/C(=C\c2cc(OC)c(OC)c(OC)c2)SC1c1ccccc1 (stereo not drawn)  > 100 µM
30  CN1CC[C@@H](c2c(O)cc(O)c3c(=O)cc(-c4ccccc4Cl)oc23)[C@@H]1CO   > 10 µM
31  COc1cc(/C=C2/C[C@H]3[C@@H]4CC=C5C[C@@H](OC(C)=O)CC[C@]5(C)[C@H]4CC[C@]3(C)NC2=O)cc(OC)c1OC  > 100 µM
32  N#Cc1c(-c2ccc(Cl)cc2)c2c(n(C3OC(CO)C(O)C(O)C3O)c1=S)CCC2 (stereo not drawn)  > 100 µM
